Values were extracted from ChEMBL document CHEMBL1143093.

- protocol-details: Metabolic stability in rat liver microsomes assessed as systemic clearance
- Type: ADME, Microsome
measured-metric: CLhep predicted (mL/min/kg)

a: CCN(CC)C(=O)[C@@]1(c2ccsc2)C[C@H]1CN
b: C=CCN(CC=C)C(=O)[C@@]1(c2ccsc2)C[C@H]1CN
Pick one: a or b . Which has the bigger CLhep predicted number? Selection: enter the item's label.
b
(b: 59 mL/min/kg, a: 34 mL/min/kg)

P: NC[C@@H]1C[C@@]1(C(=O)N1C=COc2ccccc21)c1ccsc1
Q: C=CCN(C(=O)[C@@]1(c2ccsc2)C[C@H]1CN)C1CC1
R: C#CCN(CCOC)C(=O)[C@@]1(c2ccsc2)C[C@H]1CN
Ordering criterion: CLhep predicted; begin with the maximum. Write the labels out in the order the request specifies.
P, Q, R

P: C=CCN(CCOC)C(=O)[C@@]1(c2ccsc2)C[C@H]1CN
Q: C=C(F)CN(C)C(=O)[C@@]1(c2ccsc2)C[C@H]1CN
Pick one: P or Q . Which has the bigger CLhep predicted number? Selection: enter the item's label.
P

----------
- protocol-details: Tmax in rat at 30 mg/kg, po
- Type: ADME, organism-based
- Set-up: dose 30 mg/kg, route oral
- experimental-context: in vivo
measured-metric: Tmax (min)
The answer is to be given in min; state only the numeric part.

Quick one: Tmax for "C=CCN(CC)C(=O)[C@@]1(c2ccsc2)C[C@H]1CN" ?
30

----------
- target-of-assay: Sodium-dependent noradrenaline transporter (Homo sapiens, UniProt P23975)
- Sequence (P23975 whole entry): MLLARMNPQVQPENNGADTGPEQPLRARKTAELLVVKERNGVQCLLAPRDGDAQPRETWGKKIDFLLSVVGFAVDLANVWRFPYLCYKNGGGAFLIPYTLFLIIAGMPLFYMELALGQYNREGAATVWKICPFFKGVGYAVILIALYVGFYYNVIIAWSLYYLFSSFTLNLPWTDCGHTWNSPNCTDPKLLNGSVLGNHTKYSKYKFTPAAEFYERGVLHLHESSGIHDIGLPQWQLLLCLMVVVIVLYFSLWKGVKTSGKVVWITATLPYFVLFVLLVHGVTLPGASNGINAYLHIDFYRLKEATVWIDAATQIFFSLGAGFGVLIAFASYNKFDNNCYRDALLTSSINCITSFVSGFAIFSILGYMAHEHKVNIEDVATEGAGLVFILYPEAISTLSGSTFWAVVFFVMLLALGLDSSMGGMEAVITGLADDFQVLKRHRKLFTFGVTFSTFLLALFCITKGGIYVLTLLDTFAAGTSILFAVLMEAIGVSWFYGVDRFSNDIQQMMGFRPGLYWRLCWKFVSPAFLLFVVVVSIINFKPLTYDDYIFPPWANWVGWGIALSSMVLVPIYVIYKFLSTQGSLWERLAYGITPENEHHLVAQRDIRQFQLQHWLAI
- protocol-details: Inhibition of norepinephrine uptake at human NET expressed in HEK293 cells
pIC50: −log10 of the molar value.
measured-metric: pIC50

smiles-notation: NC[C@@H]1C[C@@]1(C(=O)N1CCCc2ccccc21)c1ccsc1
target-of-assay: Sodium-dependent noradrenaline transporter (Homo sapiens, UniProt P23975)
pIC50: 7.70
--
smiles-notation: NC[C@@H]1C[C@@]1(C(=O)N1C=COc2ccccc21)c1ccsc1
target-of-assay: Sodium-dependent noradrenaline transporter (Homo sapiens, UniProt P23975)
pIC50: 7.92
--
smiles-notation: CCN(CC)C(=O)[C@@]1(c2cccs2)C[C@H]1CN
target-of-assay: Sodium-dependent noradrenaline transporter (Homo sapiens, UniProt P23975)
pIC50: 7.12

P: CCN(CC)C(=O)[C@@]1(c2cc(Cl)c(Cl)s2)C[C@H]1CN
Q: C#CCN(C)C(=O)[C@@]1(c2ccsc2)C[C@H]1CN
Lab note: check whether P or Q has the lower measured pIC50. Selection: enter the item's label.
P
(P: 6.25, Q: 6.96)

A: CCN(CC)C(=O)[C@@]1(c2cc3ccccc3s2)C[C@H]1CN
B: NC[C@@H]1C[C@@]1(C(=O)N1Cc2ccccc2C1)c1ccsc1
Lab note: check whether A or B has the lower measured pIC50. Selection: enter the item's label.
A
(A: 7.19, B: 7.43)

P: C=C(F)CN(C)C(=O)[C@@]1(c2ccsc2)C[C@H]1CN
Q: NC[C@@H]1C[C@@]1(C(=O)N1CCc2ccccc2C1)c1ccsc1
R: C#CCN(CC=C)C(=O)[C@@]1(c2ccsc2)C[C@H]1CN
Ordering criterion: pIC50; begin with the maximum. Write the labels out in the order the request specifies.
R, Q, P
(R: 8.55, Q: 8.08, P: 7.36)
